measured.target: Serine/threonine-protein kinase B-raf (Homo sapiens, UniProt P15056, V600E)
Sequence (P15056 2-766 V600E limits assumed): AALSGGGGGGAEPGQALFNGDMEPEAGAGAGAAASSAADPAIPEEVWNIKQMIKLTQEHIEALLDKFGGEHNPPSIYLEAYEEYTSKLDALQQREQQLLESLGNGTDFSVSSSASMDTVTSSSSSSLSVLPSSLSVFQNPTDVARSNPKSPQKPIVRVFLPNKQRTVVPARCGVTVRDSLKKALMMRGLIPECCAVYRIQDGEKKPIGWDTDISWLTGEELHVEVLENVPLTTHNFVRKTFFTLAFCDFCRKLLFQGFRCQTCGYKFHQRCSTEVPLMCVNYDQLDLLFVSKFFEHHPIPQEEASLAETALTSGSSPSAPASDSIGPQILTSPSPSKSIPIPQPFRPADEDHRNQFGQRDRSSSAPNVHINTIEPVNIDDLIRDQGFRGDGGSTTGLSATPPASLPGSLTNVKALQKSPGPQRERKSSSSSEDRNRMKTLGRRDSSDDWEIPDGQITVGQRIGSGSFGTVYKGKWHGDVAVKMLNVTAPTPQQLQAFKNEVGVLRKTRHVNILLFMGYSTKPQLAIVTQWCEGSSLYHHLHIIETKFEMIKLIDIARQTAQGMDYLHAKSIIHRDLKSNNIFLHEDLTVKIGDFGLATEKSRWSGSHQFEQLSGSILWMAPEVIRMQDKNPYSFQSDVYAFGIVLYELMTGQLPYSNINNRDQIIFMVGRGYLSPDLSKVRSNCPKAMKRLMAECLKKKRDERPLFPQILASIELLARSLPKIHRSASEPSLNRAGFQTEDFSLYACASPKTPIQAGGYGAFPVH
procedure.details: Inhibition of B-Raf V599E mutant assessed as phosphorylation of MEK1/2 by ELISA
Please provide measured IC50 for the entries that follow.
Give bare numbers, in nM.

[[record]]
structure_smiles_string = "CCc1ccccc1Nc1nc2cc(Oc3ccnc(C(=O)NC)c3)ccc2o1"
measured_target = "Serine/threonine-protein kinase B-raf (Homo sapiens, UniProt P15056, V600E)"
endpoint_name = "IC50"
result_value = 340

[[record]]
structure_smiles_string = "CNC(=O)c1cc(Oc2ccc3sc(Nc4cccc(C(C)(C)C)c4)nc3c2)ccn1"
measured_target = "Serine/threonine-protein kinase B-raf (Homo sapiens, UniProt P15056, V600E)"
endpoint_name = "IC50"
result_value = 4


Lab note: measured IC50 of CNC(=O)c1cc(Oc2ccc3sc(Nc4ccc(OC(F)(F)F)cc4)nc3c2)ccn1 was 18
